Recorded % of viable cells by entry
- Tested on: Neuro 2A mouse neuroblastoma cells
- Assay info: Cell toxicity: Neuro 2A cell viability (calcein-AM)
- Format: cell-based
- Measurement setup: Neuro 2A cells, 30 μM, 24 h exposure
Kindly provide the numeric value in % only, without the unit symbol.

Provide measured % of viable cells value, entry: `Cc1c(-c2noc(-c3cc(O)c(O)c([N+](=O)[O-])c3)n2)c[n+]([O-])c(C)c1C` 53.0

Provide measured % of viable cells value, entry: `O=[N+]([O-])c1cc(-c2nc(-c3ccc[n+]([O-])c3Cl)no2)cc(O)c1O` 93.7

Provide measured % of viable cells value, entry: `O=[N+]([O-])c1cc(-c2nc(Cc3ccc(C(F)(F)F)[n+]([O-])c3)no2)cc(O)c1O` 101.5

Provide measured % of viable cells value, entry: `O=[N+]([O-])c1cc(-c2nc(-c3cc[n+]([O-])c(Cl)c3)no2)cc(O)c1O` 106.7

Provide measured % of viable cells value, entry: `O=[N+]([O-])c1cc(-c2nc(-c3c[n+]([O-])ccc3C(F)(F)F)no2)cc(O)c1O` 93.4

Provide measured % of viable cells value, entry: `O=[N+]([O-])c1cc(-c2nc(-c3ccc(C(F)(F)F)[n+]([O-])c3)no2)cc(O)c1O` 87.0

Provide measured % of viable cells value, entry: `CSc1ccc(-c2noc(-c3cc(O)c(O)c([N+](=O)[O-])c3)n2)c[n+]1[O-]` 95.7

Provide measured % of viable cells value, entry: `O=[N+]([O-])c1cc(-c2nc(-c3ccc[n+]([O-])c3C(F)(F)F)no2)cc(O)c1O` 96.4

Provide measured % of viable cells value, entry: `Cc1cc(C(F)(F)F)c(-c2noc(-c3cc(O)c(O)c([N+](=O)[O-])c3)n2)c(C)[n+]1[O-]` 37.2

Provide measured % of viable cells value, entry: `Cc1c(-c2noc(-c3cc(O)c(O)c([N+](=O)[O-])c3)n2)c(C(F)(F)F)cc(-c2ccccc2)[n+]1[O-]` 26.6

====

Recorded % of viable cells by entry
- Tested on: Neuro 2A mouse neuroblastoma cells
- Assay info: Cell toxicity: Neuro 2A cell viability (calcein-AM)
- Assay type: cell-based
- Measurement setup: Neuro 2A cells, 30 μM, 24 h exposure
Kindly provide the numeric value in % only, without the unit symbol.

See these solved cases before continuing.
>  <Substance smiles>
O=[N+]([O-])c1cc(-c2nc(Cc3ccc[n+]([O-])c3)no2)cc(O)c1O

>  <Numeric value>
94.9

$$$$
>  <Substance smiles>
Cc1nc(-c2cc(O)c(O)c([N+](=O)[O-])c2)no1

>  <Numeric value>
92.5

$$$$
>  <Substance smiles>
O=[N+]([O-])c1cc(-c2nc(-c3cc[n+]([O-])c(-c4ccccc4)c3)no2)cc(O)c1O

>  <Numeric value>
79.7

$$$$
>  <Substance smiles>
O=[N+]([O-])c1cc(-c2nc(-c3cccc[n+]3[O-])no2)cc(O)c1O

>  <Numeric value>
107.1

$$$$
>  <Substance smiles>
O=[N+]([O-])c1cc(-c2nc(-c3cc[n+]([O-])c(-c4ccoc4)c3)no2)cc(O)c1O

>  <Numeric value>
69.3

$$$$

Using Neuro 2A mouse neuroblastoma cells as the test system, report measured % of viable cells of `O=[N+]([O-])c1cc(-c2nc(-c3ccc(Cl)[n+]([O-])c3)no2)cc(O)c1O` . 41.1

Using Neuro 2A mouse neuroblastoma cells as the test system, report measured % of viable cells of `Cc1nnc(-c2cc(O)c(O)c([N+](=O)[O-])c2)o1` . 100.5

Using Neuro 2A mouse neuroblastoma cells as the test system, report measured % of viable cells of `Cc1cc(C)[n+]([O-])c(Br)c1-c1noc(-c2cc(O)c(O)c([N+](=O)[O-])c2)n1` . 86.0
